System: RAW 264.7 cells
Test: Cytotoxicity, CCK-8 assay
Type: cell-based, murine
Details: 64 μM peptide, 16 h, CCK-8, OD 450 nm
Non-standard residues stand in square brackets, D forms with d. Residues, ends and D or L forms follow the SMILES beside them.
quantity.name: cell survival rate (%)
Please give a number only; it is taken to be in %.

Query: Which cell survival rate is listed for N=C(N)NCCC[C@H](NC(=O)CNC(=O)[C@H]1CCCN1C(=O)[C@H](CCCNC(=N)N)NC(=O)[C@H](CCCNC(=N)N)NC(=O)[C@H](Cc1ccccc1)NC(=O)[C@H](Cc1ccccc1)NC(=O)[C@H](CCCNC(=N)N)NC(=O)[C@H](Cc1ccccc1)NC(=O)[C@@H](N)Cc1ccccc1)C(=O)N[C@@H](CCCNC(=N)N)C(=O)N[C@@H](Cc1ccccc1)C(=O)N[C@@H](Cc1ccccc1)C(=O)N[C@@H](CCCNC(=N)N)C(=O)N[C@@H](Cc1ccccc1)C(=O)N[C@@H](Cc1ccccc1)C(N)=O [FRpG] (H-FFRFFRR[dP]GRRFFRFF-NH2) ?
Result: 78

Query: Which cell survival rate is listed for CC(C)C[C@H](NC(=O)[C@H](CC(C)C)NC(=O)[C@H](CCCNC(=N)N)NC(=O)[C@H](CC(C)C)NC(=O)[C@H](CC(C)C)NC(=O)[C@H](CCCNC(=N)N)NC(=O)[C@H](CCCNC(=N)N)NC(=O)CNC(=O)[C@H]1CCCN1C(=O)[C@H](CCCNC(=N)N)NC(=O)[C@H](CCCNC(=N)N)NC(=O)[C@H](CC(C)C)NC(=O)[C@H](CC(C)C)NC(=O)[C@H](CCCNC(=N)N)NC(=O)[C@H](CC(C)C)NC(=O)[C@@H](N)CC(C)C)C(N)=O [LRpG] (H-LLRLLRR[dP]GRRLLRLL-NH2) ?
Result: 92

----------
Test system: E. coli ATCC25922
Format: cell-based, Escherichia coli
Details: ATCC25922, 16 h
Non-standard residues stand in square brackets, D forms with d. Residues, ends and D or L forms follow the SMILES beside them.
quantity.name: MIC, Control (µM)
Please give a number only; it is taken to be in µM.

Query: Which MIC, Control is listed for N=C(N)NCCC[C@H](NC(=O)CNC(=O)[C@H]1CCCN1C(=O)[C@H](CCCNC(=N)N)NC(=O)[C@H](CCCNC(=N)N)NC(=O)[C@H](Cc1ccccc1)NC(=O)[C@H](Cc1ccccc1)NC(=O)[C@H](CCCNC(=N)N)NC(=O)[C@H](Cc1ccccc1)NC(=O)[C@@H](N)Cc1ccccc1)C(=O)N[C@@H](CCCNC(=N)N)C(=O)N[C@@H](Cc1ccccc1)C(=O)N[C@@H](Cc1ccccc1)C(=O)N[C@@H](CCCNC(=N)N)C(=O)N[C@@H](Cc1ccccc1)C(=O)N[C@@H](Cc1ccccc1)C(N)=O [FRpG] (H-FFRFFRR[dP]GRRFFRFF-NH2) ?
Result: 8

Query: Which MIC, Control is listed for CC[C@H](C)[C@H](N)C(=O)N[C@H](C(=O)N[C@@H](CCCNC(=N)N)C(=O)N[C@H](C(=O)N[C@H](C(=O)N[C@@H](CCCNC(=N)N)C(=O)N[C@@H](CCCNC(=N)N)C(=O)N1CCC[C@@H]1C(=O)NCC(=O)N[C@@H](CCCNC(=N)N)C(=O)N[C@@H](CCCNC(=N)N)C(=O)N[C@H](C(=O)N[C@H](C(=O)N[C@@H](CCCNC(=N)N)C(=O)N[C@H](C(=O)N[C@H](C(N)=O)[C@@H](C)CC)[C@@H](C)CC)[C@@H](C)CC)[C@@H](C)CC)[C@@H](C)CC)[C@@H](C)CC)[C@@H](C)CC [IRpG] (H-IIRIIRR[dP]GRRIIRII-NH2) ?
Result: 4

Query: Which MIC, Control is listed for CC(C)C[C@H](NC(=O)[C@H](CC(C)C)NC(=O)[C@H](CCCNC(=N)N)NC(=O)[C@H](CC(C)C)NC(=O)[C@H](CC(C)C)NC(=O)[C@H](CCCNC(=N)N)NC(=O)[C@H](CCCNC(=N)N)NC(=O)CNC(=O)[C@H]1CCCN1C(=O)[C@H](CCCNC(=N)N)NC(=O)[C@H](CCCNC(=N)N)NC(=O)[C@H](CC(C)C)NC(=O)[C@H](CC(C)C)NC(=O)[C@H](CCCNC(=N)N)NC(=O)[C@H](CC(C)C)NC(=O)[C@@H](N)CC(C)C)C(N)=O [LRpG] (H-LLRLLRR[dP]GRRLLRLL-NH2) ?
Result: 2

Provenance of the data: paper PMC7037546
